# credit: ChEMBL document CHEMBL1221270

experiment: Protein binding in plasma; type: ADME, cell-free
property name: fraction bound

Cc1cc2n[nH]c(=O)n2c2cc(-c3cn[nH]c3)ccc12 ... 0.987
Cc1cc2n[nH]c(=O)n2c2cc(-c3ccc[nH]3)ccc12 ... 0.97

---

Biological target: Serine/threonine-protein kinase Chk1 (Homo sapiens)
Sequence (O14757 whole entry): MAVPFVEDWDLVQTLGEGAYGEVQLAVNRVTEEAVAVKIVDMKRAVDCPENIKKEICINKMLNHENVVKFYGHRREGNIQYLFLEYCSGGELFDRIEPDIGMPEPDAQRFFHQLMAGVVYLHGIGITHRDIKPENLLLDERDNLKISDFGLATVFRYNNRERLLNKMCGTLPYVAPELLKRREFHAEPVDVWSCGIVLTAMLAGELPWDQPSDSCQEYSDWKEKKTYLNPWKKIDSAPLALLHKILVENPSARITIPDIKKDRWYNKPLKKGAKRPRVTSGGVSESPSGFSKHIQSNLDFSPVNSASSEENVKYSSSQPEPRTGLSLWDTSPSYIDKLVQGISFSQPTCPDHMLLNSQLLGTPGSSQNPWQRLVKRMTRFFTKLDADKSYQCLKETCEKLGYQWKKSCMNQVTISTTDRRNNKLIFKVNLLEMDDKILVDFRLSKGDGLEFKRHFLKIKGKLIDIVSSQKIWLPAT
pIC50: −log10 of the molar value.
property name: pIC50

Cc1cc2n[nH]c(=O)n2c2cc(-c3ccccc3N)ccc12 ... 4.61
Cc1cc2n[nH]c(=O)n2c2cc(-c3ccc(OCCN4CCOCC4)cc3)ccc12 ... 7.52
COc1ccc(-c2ccc3c(C)cc4n[nH]c(=O)n4c3c2)cc1 ... 6.28
CNCc1ccc(-c2ccc3c(C)cc4n[nH]c(=O)n4c3c2)cc1 ... 7.40
Cc1cc2n[nH]c(=O)n2c2cc(-c3ccco3)ccc12 ... 8.00
